# pEC50 per record follows
biological target: KiSS-1 receptor (Rattus norvegicus); assay: Agonist activity at rat KISS1R expressed in CHO/dhfr cells assessed as increase in intracellular Ca2+ levels measured for 180 secs by Fluo 3-AM dye based FLIPR assay
Sequence (Q924U1 whole entry): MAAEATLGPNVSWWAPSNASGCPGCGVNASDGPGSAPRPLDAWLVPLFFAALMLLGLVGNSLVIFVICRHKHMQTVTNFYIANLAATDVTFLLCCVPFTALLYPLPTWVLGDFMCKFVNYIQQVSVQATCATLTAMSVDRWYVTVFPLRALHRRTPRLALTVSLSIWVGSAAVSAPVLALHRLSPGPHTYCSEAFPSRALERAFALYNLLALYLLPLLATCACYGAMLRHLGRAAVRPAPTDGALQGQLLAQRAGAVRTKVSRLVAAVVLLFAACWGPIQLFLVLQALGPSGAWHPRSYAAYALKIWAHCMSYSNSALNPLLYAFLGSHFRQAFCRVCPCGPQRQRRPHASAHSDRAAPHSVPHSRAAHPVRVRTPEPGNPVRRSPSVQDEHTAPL
pEC50: −log10 of the molar value. Where a SMILES comes first, the peptide text is derived from it. [ ]: non-standard residue; d: D form. Arg(Me) = CNC(=N)NCCC[C@H](N)C(=O)O; azaGly = NNC(=O)O; Sar = CNCC(=O)O

>  <molecule>
CNC(=N)NCCC[C@H](NC(=O)[C@H](CC(C)C)NC(=O)NNC(=O)[C@H](Cc1ccccc1)NC(=O)[C@@H](NC(=O)[C@H](CC(N)=O)NC(=O)CNC(=O)[C@@H](Cc1ccc(O)cc1)NC(C)=O)[C@@H](C)O)C(=O)N[C@@H](Cc1c[nH]c2ccccc12)C(N)=O (Ac-[dY]GNTF[azaGly]L[Arg(Me)]W-NH2)

>  <pEC50>
7.34

$$$$
>  <molecule>
CNC(=N)NCCC[C@H](NC(=O)[C@H](CC(C)C)NC(=O)NNC(=O)[C@H](Cc1ccccc1)NC(=O)[C@@H](NC(=O)[C@H](CC(N)=O)NC(=O)CN(C)C(=O)[C@@H](Cc1ccc(O)cc1)NC(C)=O)[C@@H](C)O)C(=O)N[C@@H](Cc1c[nH]c2ccccc12)C(N)=O (Ac-[dY][Sar]NTF[azaGly]L[Arg(Me)]W-NH2)

>  <pEC50>
7.70

$$$$
